Assign melting point to each entry below.

Input Cc1ccnc(NS(=O)(=O)c2ccc(Nc3nc(Cl)nc(Cl)n3)cc2)n1 . Output melting point: 235 to 237 °C

Input Cc1cc(C)nc(NS(=O)(=O)c2ccc(Nc3nc(Cl)nc(Cl)n3)cc2)n1 . Output melting point: 327 to 329 °C

Input O=S(=O)(Nc1ncccn1)c1ccc(Nc2nc(Cl)nc(Cl)n2)cc1 . Output melting point: 221 to 223 °C

Input O=S(=O)(Nc1cnc2ccccc2n1)c1ccc(Nc2nc(Cl)nc(Cl)n2)cc1 . Output melting point: 268 to 270 °C

Input O=S(=O)(Nc1cncc(Cl)n1)c1ccc(Nc2nc(Cl)nc(Cl)n2)cc1 . Output melting point: 236 to 238 °C
